- Tested on: Plasmodium falciparum
- Test protocol: Antiplasmodial activity against chloroquine-resistant Plasmodium falciparum W2 infected in human erythrocytes assessed as reduction in parasitaemia after 48 hrs by FACS
- Type: functional, organism-based
- Experimental setup: W2, 48 h
Assay readout: pIC50
Worth noting: pIC50 values are minus log10 of concentrations stated in mol/L.

{"Record smiles": "C[C@@H]1[C@H]2[C@H]3OC(=O)[C@H](C)[C@@]34CC[C@](C)(OO4)[C@H]2C[C@@H]1O", "Assay readout": "pIC50", "Reported result": 6.21}
{"Record smiles": "COc1ccc(CO[C@H]2C[C@H]3[C@@H]([C@H]2C)[C@H]2OC(=O)[C@H](C)[C@@]24C=C[C@]3(C)OO4)cc1", "Assay readout": "pIC50", "Reported result": 6.54}

// returns pIC50 for CCO[C@@H]1O[C@@H]2[C@@H]3[C@@H](C)[C@@H](OCc4ccc(OC)cc4)C[C@@H]3[C@]3(C)CC[C@]2(OO3)[C@H]1C with Plasmodium falciparum; value = 5.47

====

- Tested on: Plasmodium falciparum
- Test protocol: Antiplasmodial activity against chloroquine-resistant Plasmodium falciparum W2 infected in human erythrocytes assessed as reduction in parasitaemia after 48 hrs by FACS
- Type: functional, organism-based
- Experimental setup: W2, 48 h
Assay readout: pIC50
Remember the convention: pIC50 equals -log10 of concentration in molar.

For orientation, consider the following solved cases.
{"Compound": "C[C@@H]1[C@H]2[C@H]3OC(=O)[C@H](C)[C@@]34C=C[C@](C)(OO4)[C@H]2C[C@@H]1O", "pIC50": 5.98}
{"Compound": "COc1ccc(CO[C@H]2C[C@H]3[C@@H]([C@H]2C)[C@H]2OC[C@H](C)[C@@]24C=C[C@]3(C)OO4)cc1", "pIC50": 6.64}
{"Compound": "CCO[C@@H]1O[C@@H]2[C@@H]3[C@@H](C)[C@@H](OCc4ccc(OC)cc4)C[C@@H]3[C@]3(C)C=C[C@]2(OO3)[C@H]1C", "pIC50": 6.21}
{"Compound": "C[C@@H]1CC[C@H]2[C@@H](C)C(=O)O[C@@H]3O[C@@]4(C)CC[C@@H]1[C@]32OO4 [ARTEMISININ]", "pIC50": 8.30}
{"Compound": "COc1ccc(CO[C@H]2C[C@H]3[C@@H]([C@H]2C)[C@H]2OC(O)[C@H](C)[C@@]24C=C[C@]3(C)OO4)cc1 (stereo partly specified)", "pIC50": 5.98}

Please find the next compound below.
pIC50 in this record for COc1ccc(CO[C@H]2C[C@H]3[C@@H]([C@H]2C)[C@H]2OC(=O)[C@H](C)[C@@]24CC[C@]3(C)OO4)cc1 : 6.43

The reported measurements were obtained from ChEMBL document CHEMBL1275366.
